Source: the supplement of paper PMC10065799

Test system: Fer (mouse)
Test: phosphorylation enrichment, bacterial display (enrichment ratio); higher = better substrate or ligand; peptides without Tyr show the background
OUTCOME_MEASURE: phosphorylation enrichment
The response must contain the number and no unit.

RESIDUE_STRING	OUTCOME_MEASURE	VALUE
QTEAPYRFIYM [PTPN11_Y511_Q510P]	phosphorylation enrichment	11

Entry VTQEQYELHCE [CBL_Y368_Y371H] ; phosphorylation enrichment = 0.736

---

Biological target: Grb2 SH2 (UniProt P62993)
Sequence (P62993 whole entry, looked up): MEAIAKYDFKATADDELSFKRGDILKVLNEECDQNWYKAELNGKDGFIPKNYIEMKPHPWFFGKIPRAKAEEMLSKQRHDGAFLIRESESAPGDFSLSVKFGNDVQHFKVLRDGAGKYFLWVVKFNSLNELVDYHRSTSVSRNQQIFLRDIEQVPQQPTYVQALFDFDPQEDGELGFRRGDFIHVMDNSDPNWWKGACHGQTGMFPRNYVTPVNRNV
Assay: SH2 binding enrichment of the phosphorylated peptide, bacterial display (enrichment ratio); higher = better substrate or ligand; peptides without Tyr show the background
sequences and their reported SH2 binding enrichment

RESIDUE_STRING	VALUE
FIATQYSLCPR [LBR_Y166_R169C_YF]	1.02
ATQDDYVLEVR [PTPRZ1_Y2179]	0.856
GGPAEYLRRAS [PKLR_Y38_G37E]	0.743
RNYDTYTAGLS [RHBDD1_Y264]	0.707
DNLNNYVFQGQ [GRIN2A_Y978]	0.819

Entry EVASVYQSYQP [MAVS_Y92] ; SH2 binding enrichment = 0.753

Entry HRDSSYYWEIE [RAF1_Y340_Q335H] ; SH2 binding enrichment = 0.842

Entry LIHLHYIRRDF [BBS4_Y43_K46R_YF] ; SH2 binding enrichment = 1.28

---

Test system: Fer (mouse)
Assay: phosphorylation enrichment, bacterial display (enrichment ratio); higher = better substrate or ligand; peptides without Tyr show the background
OUTCOME_MEASURE: phosphorylation enrichment
The response must contain the number and no unit.

Here's what some known entries look like.
RESIDUE_STRING	OUTCOME_MEASURE	VALUE
ATQDDYVLEVR [PTPRZ1_Y2179]	phosphorylation enrichment	0.497
VIIVLYFSLWK [SLC6A2_Y249_V245I]	phosphorylation enrichment	0.471
NFATLHLKIYH [PDE6B_Y219_Y219H]	phosphorylation enrichment	0.498
MPAVTYTLAMR [MEGF10_Y895_P897L]	phosphorylation enrichment	0.488
PTTKTYFPHFG [HBA1_Y43_D48G]	phosphorylation enrichment	0.435

Entry QFNPEYVQQAS [LRRC7_Y1058_H1054Y_YF] ; phosphorylation enrichment = 0.648

Entry EHLNRYISDTF [TTLL10_Y446] ; phosphorylation enrichment = 0.434

Entry DPLLTYRFPPK [LMNA_Y481] ; phosphorylation enrichment = 0.292

---

sequences and their reported phosphorylation enrichment
Molecular target: Hck (UniProt P08631)
Sequence (P08631 whole entry, looked up): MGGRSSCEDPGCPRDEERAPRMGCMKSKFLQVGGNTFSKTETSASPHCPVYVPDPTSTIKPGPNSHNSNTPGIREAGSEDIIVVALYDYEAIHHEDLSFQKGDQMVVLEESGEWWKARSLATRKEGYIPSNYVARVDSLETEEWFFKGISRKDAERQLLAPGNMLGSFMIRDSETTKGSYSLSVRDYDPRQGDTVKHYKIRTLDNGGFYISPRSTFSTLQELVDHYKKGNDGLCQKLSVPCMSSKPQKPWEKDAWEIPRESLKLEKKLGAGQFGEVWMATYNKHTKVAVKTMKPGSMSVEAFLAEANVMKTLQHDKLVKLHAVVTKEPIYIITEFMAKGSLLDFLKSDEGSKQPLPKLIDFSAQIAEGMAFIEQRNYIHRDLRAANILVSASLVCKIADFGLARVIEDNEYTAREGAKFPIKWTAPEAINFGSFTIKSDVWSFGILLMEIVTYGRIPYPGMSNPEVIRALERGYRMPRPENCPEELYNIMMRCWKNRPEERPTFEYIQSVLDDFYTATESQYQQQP
Assay: phosphorylation enrichment, bacterial display (enrichment ratio); higher = better substrate or ligand; peptides without Tyr show the background
The response must contain the number and no unit.

Here's what some known entries look like.
RESIDUE_STRING	phosphorylation enrichment
RRERPYGGGGG [FUS_Y526]	0.414
VASSLYDILAR [GLB1_Y294]	8.2
QGIPWYHSQSP [FOXF1_Y331_R330W]	0.547
FIRRDYEACKA [BBS4_Y48_K46R_YF]	0.442
PVGVLYKVKVF [PTS_Y128_YF]	0.619

Entry TSSAGYRAAEG [COL6A3_Y543] ; phosphorylation enrichment = 0.379

Entry HSDYQYGQRSQ [PKP2_Y168_S169G] ; phosphorylation enrichment = 0.574
